# assaySystem: human activated protein C (human, UniProt P04070 43-197; P04070 212-461)
# methodDescription: cell-based or functional assay
propertyName: Mean clotting time (s), FIX-deficient plasma, APC-antibody concentration 5 ug/ml
Unit s implied. Number only.

Recorded results for 2 binders are shown here.
Humanized antibody 14 (HAPC-14) (antibody, V domains shown, also called Humab001-14; NO; 14 antibody) VH: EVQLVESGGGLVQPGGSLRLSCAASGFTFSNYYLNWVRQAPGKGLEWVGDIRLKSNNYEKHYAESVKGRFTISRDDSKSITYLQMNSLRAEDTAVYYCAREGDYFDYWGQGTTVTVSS VL: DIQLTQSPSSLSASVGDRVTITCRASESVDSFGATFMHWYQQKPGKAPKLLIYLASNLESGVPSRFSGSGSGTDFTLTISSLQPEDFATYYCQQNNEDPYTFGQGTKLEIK = 310
HAPC-14-7 (antibody, V domains shown, Whole IgG, backbone hIgG1; also called HPAC 14-7) VH: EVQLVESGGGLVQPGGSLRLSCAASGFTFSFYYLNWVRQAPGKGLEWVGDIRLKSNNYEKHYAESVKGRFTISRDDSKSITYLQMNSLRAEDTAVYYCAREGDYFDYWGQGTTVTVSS VL: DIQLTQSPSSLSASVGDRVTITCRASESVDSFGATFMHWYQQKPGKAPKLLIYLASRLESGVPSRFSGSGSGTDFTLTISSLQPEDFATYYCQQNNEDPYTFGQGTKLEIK = 146

Return value of Mean clotting time (s), FIX-deficient plasma, APC-antibody concentration 5 ug/ml for input HAPC-14-1 (antibody, V domains shown, Whole IgG, backbone hIgG1; also called HPAC14-1) VH: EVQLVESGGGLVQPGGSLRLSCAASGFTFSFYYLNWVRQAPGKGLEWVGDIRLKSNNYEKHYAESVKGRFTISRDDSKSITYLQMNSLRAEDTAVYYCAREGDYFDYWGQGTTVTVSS VL: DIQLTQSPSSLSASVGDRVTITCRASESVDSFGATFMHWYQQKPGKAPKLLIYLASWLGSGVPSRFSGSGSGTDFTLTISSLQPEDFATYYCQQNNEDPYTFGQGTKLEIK , no commentary.
171

Return value of Mean clotting time (s), FIX-deficient plasma, APC-antibody concentration 5 ug/ml for input HAPC-14-5 (antibody, V domains shown, Whole IgG, backbone hIgG1; also called HPAC 14-5) VH: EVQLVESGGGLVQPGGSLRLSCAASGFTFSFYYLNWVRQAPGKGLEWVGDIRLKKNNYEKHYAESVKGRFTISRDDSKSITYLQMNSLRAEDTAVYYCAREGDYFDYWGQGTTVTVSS VL: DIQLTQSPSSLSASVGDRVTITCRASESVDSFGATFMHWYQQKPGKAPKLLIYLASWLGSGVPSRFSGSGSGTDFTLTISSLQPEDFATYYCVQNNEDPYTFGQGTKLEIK , no commentary.
166

Return value of Mean clotting time (s), FIX-deficient plasma, APC-antibody concentration 5 ug/ml for input HAPC-14-2 (antibody, V domains shown, Whole IgG, backbone hIgG1; also called HPAC 14-2) VH: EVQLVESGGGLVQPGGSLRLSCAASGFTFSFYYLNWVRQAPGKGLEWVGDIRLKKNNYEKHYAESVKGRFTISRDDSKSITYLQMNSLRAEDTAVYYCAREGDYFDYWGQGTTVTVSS VL: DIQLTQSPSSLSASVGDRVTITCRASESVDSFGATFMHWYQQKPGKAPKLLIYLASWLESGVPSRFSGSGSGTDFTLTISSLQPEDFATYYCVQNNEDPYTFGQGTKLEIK , no commentary.
143
